test_protocol: First-in-human PET/CT in advanced NSCLC patients: tumor uptake and biodistribution
condition_parameters: human, primary tumor, iv, SUVmax of primary tumor, patient 9, PD-L1 TPS 80%
recorded_endpoint: SUV (SUV)
Number only, in SUV; omit the unit.

query: What value of SUV has been recorded for this entry: CCCC[C@H]1C(=O)N(C)[C@@H](CCCC)C(=O)N[C@@H](CCCNC(=O)CN2CCN(CC(=O)O)CCN(CC(=O)O)CC2)C(=O)N[C@H](C(=O)NCC(N)=O)CSCC(=O)N[C@@H](Cc2ccc(O)cc2)C(=O)N(C)[C@@H](C)C(=O)N[C@@H](CC(N)=O)C(=O)N2CCC[C@H]2C(=O)N[C@@H](Cc2c[nH]cn2)C(=O)N[C@@H](CC(C)C)C(=O)N2C[C@H](O)C[C@H]2C(=O)N[C@@H](Cc2c[nH]c3ccccc23)C(=O)N[C@@H](CO)C(=O)N[C@@H](Cc2cn(C)c3ccccc23)C(=O)N1C [^68Ga-NOTA-WL12, metal not drawn]
result: 4.87

====

test_protocol: First-in-human PET/CT in advanced NSCLC patients: tumor uptake and biodistribution
condition_parameters: human, tumor versus lung, iv, total radioactivity
recorded_endpoint: tissue to tissue ratio at 1 h
Enter the number alone.

query: What value of tissue to tissue ratio at 1 h has been recorded for this entry: CCCC[C@H]1C(=O)N(C)[C@@H](CCCC)C(=O)N[C@@H](CCCNC(=O)CN2CCN(CC(=O)O)CCN(CC(=O)O)CC2)C(=O)N[C@H](C(=O)NCC(N)=O)CSCC(=O)N[C@@H](Cc2ccc(O)cc2)C(=O)N(C)[C@@H](C)C(=O)N[C@@H](CC(N)=O)C(=O)N2CCC[C@H]2C(=O)N[C@@H](Cc2c[nH]cn2)C(=O)N[C@@H](CC(C)C)C(=O)N2C[C@H](O)C[C@H]2C(=O)N[C@@H](Cc2c[nH]c3ccccc23)C(=O)N[C@@H](CO)C(=O)N[C@@H](Cc2cn(C)c3ccccc23)C(=O)N1C [^68Ga-NOTA-WL12, metal not drawn]
result: 4.45

====

test_protocol: First-in-human PET/CT in advanced NSCLC patients: tumor uptake and biodistribution
condition_parameters: human, tumor versus lung, iv, total radioactivity
recorded_endpoint: tissue to tissue ratio at 2 h

query: What value of tissue to tissue ratio at 2 h has been recorded for this entry: CCCC[C@H]1C(=O)N(C)[C@@H](CCCC)C(=O)N[C@@H](CCCNC(=O)CN2CCN(CC(=O)O)CCN(CC(=O)O)CC2)C(=O)N[C@H](C(=O)NCC(N)=O)CSCC(=O)N[C@@H](Cc2ccc(O)cc2)C(=O)N(C)[C@@H](C)C(=O)N[C@@H](CC(N)=O)C(=O)N2CCC[C@H]2C(=O)N[C@@H](Cc2c[nH]cn2)C(=O)N[C@@H](CC(C)C)C(=O)N2C[C@H](O)C[C@H]2C(=O)N[C@@H](Cc2c[nH]c3ccccc23)C(=O)N[C@@H](CO)C(=O)N[C@@H](Cc2cn(C)c3ccccc23)C(=O)N1C [^68Ga-NOTA-WL12, metal not drawn]
result: 5.18

====

test_protocol: in vivo
condition_parameters: NOD/SCID, mouse, iv, 7.4 MBq (~0.17 ug), total radioactivity, tumor-to-muscle uptake (T/M)
recorded_endpoint: tissue to tissue ratio at 2 h
Enter the number alone.

query: What value of tissue to tissue ratio at 2 h has been recorded for this entry: CCCC[C@H]1C(=O)N(C)[C@@H](CCCC)C(=O)N[C@@H](CCCNC(=O)CN2CCN(CC(=O)O)CCN(CC(=O)O)CC2)C(=O)N[C@H](C(=O)NCC(N)=O)CSCC(=O)N[C@@H](Cc2ccc(O)cc2)C(=O)N(C)[C@@H](C)C(=O)N[C@@H](CC(N)=O)C(=O)N2CCC[C@H]2C(=O)N[C@@H](Cc2c[nH]cn2)C(=O)N[C@@H](CC(C)C)C(=O)N2C[C@H](O)C[C@H]2C(=O)N[C@@H](Cc2c[nH]c3ccccc23)C(=O)N[C@@H](CO)C(=O)N[C@@H](Cc2cn(C)c3ccccc23)C(=O)N1C [^68Ga-NOTA-WL12, metal not drawn]
result: 19.1

All values here come from paper PMC8973283.
